This collection of values is drawn from patent US20250092010A1.

experiment: Pharmacokinetic assays after oral gavage administration to rats; type: in vivo, male SD rats; conditions: plasma, active metabolite; oral gavage, male SD rats
MEASURED_METRIC: CLz/F (mL/min/kg)

- MOLECULE: "CCCCCCOC(=O)Nc1cccc2c1CN(C1CCC(=O)NC1=O)C2=O (stereo not shown)"
  MEASURED_METRIC: "CLz/F"
  ASSAY_RESULT: 70
- MOLECULE: "Cc1oc(=O)oc1COC(=O)Nc1cccc2c1CN(C1CCC(=O)NC1=O)C2=O (stereo not shown)"
  MEASURED_METRIC: "CLz/F"
  ASSAY_RESULT: 98.3
- MOLECULE: "CC(C)OC(=O)Nc1cccc2c1CN(C1CCC(=O)NC1=O)C2=O (stereo not shown)"
  MEASURED_METRIC: "CLz/F"
  ASSAY_RESULT: 71.7
- MOLECULE: "CCCCCCCCOC(=O)Nc1cccc2c1CN(C1CCC(=O)NC1=O)C2=O (stereo not shown)"
  MEASURED_METRIC: "CLz/F"
  ASSAY_RESULT: 68.3
- MOLECULE: "CCCCCCCCCCCCCCCCCCOC(=O)Nc1cccc2c1CN(C1CCC(=O)NC1=O)C2=O (stereo not shown)"
  MEASURED_METRIC: "CLz/F"
  ASSAY_RESULT: 70
- MOLECULE: "CCCCCCCCCCCOC(=O)Nc1cccc2c1CN(C1CCC(=O)NC1=O)C2=O (stereo not shown)"
  MEASURED_METRIC: "CLz/F"
  ASSAY_RESULT: 63.3
- MOLECULE: "CCC(CC)COC(=O)Nc1cccc2c1CN(C1CCC(=O)NC1=O)C2=O (stereo not shown)"
  MEASURED_METRIC: "CLz/F"
  ASSAY_RESULT: 65

----------
test: Pharmacokinetic assays after oral gavage administration to rats; assay type: in vivo, male SD rats; set-up: concentration or dose not given beside the values; settings: plasma, active metabolite; oral gavage, male SD rats
Quick reference: AUC(0-∞) of the listed items.

- COMPOUND: "CC(C)OC(=O)Nc1cccc2c1CN(C1CCC(=O)NC1=O)C2=O (stereo not drawn)"
  AUC(0-∞) [ng·h/mL]: 3889.6
- COMPOUND: "CCCCCCCCCCCOC(=O)Nc1cccc2c1CN(C1CCC(=O)NC1=O)C2=O (stereo not drawn)"
  AUC(0-∞) [ng·h/mL]: 421.5
- COMPOUND: "CCCCCCOC(=O)Nc1cccc2c1CN(C1CCC(=O)NC1=O)C2=O (stereo not drawn)"
  AUC(0-∞) [ng·h/mL]: 1257

----------
assay: Pharmacokinetic assays after oral gavage administration to rats; type: in vivo, male SD rats; conditions: plasma, active metabolite; oral gavage, male SD rats

- COMPOUND: "CCCCCCCCCCCCCCCCCCOC(=O)Nc1cccc2c1CN(C1CCC(=O)NC1=O)C2=O (stereo not shown)"
  MRT(0-t): "3.5 ± 0.6 h"
- COMPOUND: "CCCCCCCCCCCOC(=O)Nc1cccc2c1CN(C1CCC(=O)NC1=O)C2=O (stereo not shown)"
  MRT(0-t): "3.8 ± 0.5 h"
- COMPOUND: "Cc1oc(=O)oc1COC(=O)Nc1cccc2c1CN(C1CCC(=O)NC1=O)C2=O (stereo not shown)"
  MRT(0-t): "8.6 ± 0.6 h"
- COMPOUND: "CC(C)OC(=O)Nc1cccc2c1CN(C1CCC(=O)NC1=O)C2=O (stereo not shown)"
  MRT(0-t): "4.5 ± 0.7 h"
- COMPOUND: "CCC(CC)COC(=O)Nc1cccc2c1CN(C1CCC(=O)NC1=O)C2=O (stereo not shown)"
  MRT(0-t): "5.2 ± 0.7 h"
- COMPOUND: "CCCCCCCCOC(=O)Nc1cccc2c1CN(C1CCC(=O)NC1=O)C2=O (stereo not shown)"
  MRT(0-t): "3.8 ± 0.7 h"
- COMPOUND: "CCCCCCOC(=O)Nc1cccc2c1CN(C1CCC(=O)NC1=O)C2=O (stereo not shown)"
  MRT(0-t): "4 ± 0.5 h"

----------
Experiment: Pharmacokinetic assays after oral gavage administration to rats
Format: in vivo, male SD rats
Set-up: unit not given here
Settings: plasma, active metabolite; oral gavage, male SD rats
Experimental: Instruments: ultra high performance liquid chromatography (Acquity UPLC, Waters) system; triple quadrupole mass spectrometer (Qtrap 5500, Sciex); high-speed refrigerated centrifuge (5430R, Eppendorf). […] Plasma drug concentration Data and Calculation of Pharmacokinetic Parameters: Plasma drug concentration data was processed using MultiQuan 3.0 (Sciex), and pharmacokinetic parameters were calculated using DAS 2.0 software. Plasma drug concentrations were measured in ug/L.
Everything with AUMC(0-∞) lower than 10000 is false; everything else, including exactly 10000, is true.

- MOLECULE: "CCCCCCCCCCCCCCCCCCOC(=O)Nc1cccc2c1CN(C1CCC(=O)NC1=O)C2=O (stereo not shown)"
  GROUP: "false"
- MOLECULE: "CCCCCCCCCCCOC(=O)Nc1cccc2c1CN(C1CCC(=O)NC1=O)C2=O (stereo not shown)"
  GROUP: "false"
- MOLECULE: "Cc1oc(=O)oc1COC(=O)Nc1cccc2c1CN(C1CCC(=O)NC1=O)C2=O (stereo not shown)"
  GROUP: "true"
- MOLECULE: "CC(C)OC(=O)Nc1cccc2c1CN(C1CCC(=O)NC1=O)C2=O (stereo not shown)"
  GROUP: "true"
- MOLECULE: "CCCCCCCCOC(=O)Nc1cccc2c1CN(C1CCC(=O)NC1=O)C2=O (stereo not shown)"
  GROUP: "false"
- MOLECULE: "CCCCCCOC(=O)Nc1cccc2c1CN(C1CCC(=O)NC1=O)C2=O (stereo not shown)"
  GROUP: "false"
- MOLECULE: "CCC(CC)COC(=O)Nc1cccc2c1CN(C1CCC(=O)NC1=O)C2=O (stereo not shown)"
  GROUP: "true"

----------
assay: Pharmacokinetic assays after oral gavage administration to rats; type: in vivo, male SD rats; conditions: plasma, active metabolite; oral gavage, male SD rats
MEASURED_METRIC: t½z (h)

- COMPOUND: "CCCCCCCCCCCCCCCCCCOC(=O)Nc1cccc2c1CN(C1CCC(=O)NC1=O)C2=O (stereo not shown)"
  ASSAY_RESULT: 3.0
- COMPOUND: "CC(C)OC(=O)Nc1cccc2c1CN(C1CCC(=O)NC1=O)C2=O (stereo not shown)"
  ASSAY_RESULT: 2.8
- COMPOUND: "CCCCCCCCCCCOC(=O)Nc1cccc2c1CN(C1CCC(=O)NC1=O)C2=O (stereo not shown)"
  ASSAY_RESULT: 2.9
- COMPOUND: "CCC(CC)COC(=O)Nc1cccc2c1CN(C1CCC(=O)NC1=O)C2=O (stereo not shown)"
  ASSAY_RESULT: 3.1
- COMPOUND: "CCCCCCCCOC(=O)Nc1cccc2c1CN(C1CCC(=O)NC1=O)C2=O (stereo not shown)"
  ASSAY_RESULT: 3.1
- COMPOUND: "Cc1oc(=O)oc1COC(=O)Nc1cccc2c1CN(C1CCC(=O)NC1=O)C2=O (stereo not shown)"
  ASSAY_RESULT: 2.9
- COMPOUND: "CCCCCCOC(=O)Nc1cccc2c1CN(C1CCC(=O)NC1=O)C2=O (stereo not shown)"
  ASSAY_RESULT: 3.0

----------
experiment: Pharmacokinetic assays after oral gavage administration to rats; format: in vivo, male SD rats; design: concentration or dose not given beside the values; conditions: plasma, active metabolite; oral gavage, male SD rats
MEASURED_METRIC: Tmax (h)

- MOLECULE: "CCC(CC)COC(=O)Nc1cccc2c1CN(C1CCC(=O)NC1=O)C2=O (stereo not shown) [Compound 10]"
  MEASURED_METRIC: "Tmax"
  UNITS_OF_MEASURE: "h"
  ASSAY_RESULT: 5
- MOLECULE: "CCCCCCCCOC(=O)Nc1cccc2c1CN(C1CCC(=O)NC1=O)C2=O (stereo not shown) [Compound 7]"
  MEASURED_METRIC: "Tmax"
  UNITS_OF_MEASURE: "h"
  ASSAY_RESULT: 3.5
- MOLECULE: "CCCCCCCCCCCCCCCCCCOC(=O)Nc1cccc2c1CN(C1CCC(=O)NC1=O)C2=O (stereo not shown) [Compound 9]"
  MEASURED_METRIC: "Tmax"
  UNITS_OF_MEASURE: "h"
  ASSAY_RESULT: 4.1
- MOLECULE: "Cc1oc(=O)oc1COC(=O)Nc1cccc2c1CN(C1CCC(=O)NC1=O)C2=O (stereo not shown) [Compound 6]"
  MEASURED_METRIC: "Tmax"
  UNITS_OF_MEASURE: "h"
  ASSAY_RESULT: 7
- MOLECULE: "CC(C)OC(=O)Nc1cccc2c1CN(C1CCC(=O)NC1=O)C2=O (stereo not shown) [Compound 1]"
  MEASURED_METRIC: "Tmax"
  UNITS_OF_MEASURE: "h"
  ASSAY_RESULT: 0.8
- MOLECULE: "CCCCCCOC(=O)Nc1cccc2c1CN(C1CCC(=O)NC1=O)C2=O (stereo not shown) [Compound 5]"
  MEASURED_METRIC: "Tmax"
  UNITS_OF_MEASURE: "h"
  ASSAY_RESULT: 4
- MOLECULE: "CCCCCCCCCCCOC(=O)Nc1cccc2c1CN(C1CCC(=O)NC1=O)C2=O (stereo not shown) [Compound 8]"
  MEASURED_METRIC: "Tmax"
  UNITS_OF_MEASURE: "h"
  ASSAY_RESULT: 3.8
